# tested_target: Aromatase (Homo sapiens) (UniProt P11511)
# Sequence (P11511 whole entry, looked up): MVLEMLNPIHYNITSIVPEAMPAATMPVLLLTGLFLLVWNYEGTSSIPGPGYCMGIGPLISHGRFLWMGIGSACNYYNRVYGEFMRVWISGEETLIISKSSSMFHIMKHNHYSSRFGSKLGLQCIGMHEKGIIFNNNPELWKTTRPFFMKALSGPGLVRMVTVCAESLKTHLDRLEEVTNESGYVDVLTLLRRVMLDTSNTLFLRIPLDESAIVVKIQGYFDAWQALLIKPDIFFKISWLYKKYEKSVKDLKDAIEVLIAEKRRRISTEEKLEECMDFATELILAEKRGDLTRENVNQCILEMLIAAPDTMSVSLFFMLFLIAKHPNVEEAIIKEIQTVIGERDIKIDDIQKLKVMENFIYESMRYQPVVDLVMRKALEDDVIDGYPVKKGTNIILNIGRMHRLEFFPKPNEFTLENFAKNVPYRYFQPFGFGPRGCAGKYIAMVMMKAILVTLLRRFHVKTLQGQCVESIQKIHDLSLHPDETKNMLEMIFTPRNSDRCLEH
# test_details: qHTS assay to identify aromatase inhibitors (AID 743083); further: nearly all actives have a fitted effect of over 55% in size
# condition_parameters: MCF-7 aro ERE, testosterone-driven ERE luciferase, 24 h; series mostly up to 70.3 µM
Results filed as inconclusive are left out. Activity calls are given as the source filed them. The call rests on the fitted dose curve; in most records, active means well fitted inhibition curve with a large enough effect in the repeat runs; inconclusive means weak or mixed curves; inactive means no such curve, though single readings can be large or run the other way.
# valid calls are Yes for active, No for inactive; nothing else

Illustrative cases are given below, each with its answer.
[[record]]
compound = "C[C@]12CC[C@H]3[C@@H](CCC4=C(Cl)C(=O)CC[C@@]43C)[C@@H]1CC[C@@H]2O"
tested_target = "Aromatase (Homo sapiens) (UniProt P11511)"
class = "No"

[[record]]
compound = "NCC[C@H](O)C(=O)N[C@@H]1C[C@H](N)[C@@H](O[C@H]2O[C@H](CN)[C@@H](O)[C@H](O)[C@H]2N)[C@H](O[C@@H]2O[C@H](CO)[C@@H](O)[C@H]2O)[C@H]1O"
tested_target = "Aromatase (Homo sapiens) (UniProt P11511)"
class = "No"

[[record]]
compound = "CC(=O)OO"
tested_target = "Aromatase (Homo sapiens) (UniProt P11511)"
class = "No"


Qu. I'd appreciate the recorded outcome for COc1ccc(CCN2CCC(Nc3nc4ccccc4n3Cc3ccc(F)cc3)CC2)cc1 from this test.
Ans. Yes

Qu. I'd appreciate the recorded outcome for C[C@H]1CC[C@]2(NC1)O[C@H]1C[C@H]3[C@@H]4CC[C@H]5C[C@@H](O)CC[C@]5(C)[C@H]4CC[C@]3(C)[C@H]1[C@@H]2C from this test.
Ans. No

Qu. I'd appreciate the recorded outcome for O=C1OC(=O)c2c(Cl)c(Cl)c(Cl)c(Cl)c21 from this test.
Ans. No

Qu. I'd appreciate the recorded outcome for COc1cc([C@@H]2c3cc4c(cc3[C@@H](O)[C@H]3COC(=O)[C@H]23)OCO4)cc(OC)c1O from this test.
Ans. No

Qu. I'd appreciate the recorded outcome for CCON=O from this test.
Ans. No

Qu. I'd appreciate the recorded outcome for NCC(O)c1cccc(O)c1 (centres undefined) from this test.
Ans. No

Qu. I'd appreciate the recorded outcome for O=C1CCO1 from this test.
Ans. No

Qu. I'd appreciate the recorded outcome for CO[C@H]1[C@@H](O)C[C@H](O[C@H]2[C@@H](O)C[C@H](O[C@H]3[C@@H](O)C[C@H](O[C@H]4CC[C@@]5(C)[C@H](CC[C@@H]6[C@@H]5C[C@@H](O)[C@]5(C)[C@@H](C7=CC(=O)OC7)CC[C@]65O)C4)O[C@@H]3C)O[C@@H]2C)O[C@@H]1C from this test.
Ans. No

----------
# tested_target: Aromatase (Homo sapiens) (UniProt P11511)
# test_details: qHTS assay to identify aromatase inhibitors (AID 743083); further: nearly all actives have a fitted effect of over 55% in size
# condition_parameters: MCF-7 aro ERE, testosterone-driven ERE luciferase, 24 h; series mostly up to 70.3 µM
Records with an inconclusive call do not appear. Calls of active or inactive are those of the source. Calls come from the whole dose curve; as a rule, active = well fitted inhibition curve with a large enough effect in the repeat runs; inconclusive = weak or mixed curves; inactive = no such curve, though single readings can be large or run the other way.
# valid calls are active, inactive; nothing else

Illustrative cases are given below, each with its answer.
[[record]]
compound = "C[C@]12CC[C@H]3[C@@H](CCC4=CC(=O)CC[C@@]43C)[C@@H]1CC[C@H]2O"
tested_target = "Aromatase (Homo sapiens) (UniProt P11511)"
class = "inactive"

[[record]]
compound = "COc1ccc(C(c2ccc(OC)cc2)C(Cl)(Cl)Cl)cc1"
tested_target = "Aromatase (Homo sapiens) (UniProt P11511)"
class = "inactive"

[[record]]
compound = "C[C@@H]1[C@@H]2Cc3ccc(O)cc3[C@@]1(C)CCN2CCc1ccccc1"
tested_target = "Aromatase (Homo sapiens) (UniProt P11511)"
class = "inactive"


Qu. I'd appreciate the recorded outcome for CC[N+](C)(CC)CCOC(=O)C(O)(c1ccccc1)c1ccccc1 from this test.
Ans. inactive

Qu. I'd appreciate the recorded outcome for CCCCCc1cc(O)c2c(c1)OC(C)(C)c1ccc(C)cc1-2 from this test.
Ans. active

Qu. I'd appreciate the recorded outcome for c1cc2c(c(NC3=NCCN3)c1)CCCC2 from this test.
Ans. inactive

Qu. I'd appreciate the recorded outcome for O=[N+]([O-])c1cc(C(F)(F)F)ccc1Cl from this test.
Ans. inactive

Qu. I'd appreciate the recorded outcome for CNC(C)C(O)c1ccc(O)cc1 (centres undefined) from this test.
Ans. inactive

Qu. I'd appreciate the recorded outcome for Cc1ccccc1-n1c(CF)nc2ccc(N)cc2c1=O from this test.
Ans. inactive

Qu. I'd appreciate the recorded outcome for C=CCC1([C@@H](C)CCC)C(=O)NC(=O)NC1=O from this test.
Ans. inactive

Qu. I'd appreciate the recorded outcome for Nc1ccccc1[N+](=O)[O-] from this test.
Ans. inactive

Qu. I'd appreciate the recorded outcome for CN1[C@H]2CC[C@@H]1[C@@H](C(=O)O)[C@@H](OC(=O)c1ccccc1)C2 from this test.
Ans. inactive

Qu. I'd appreciate the recorded outcome for NC1=NC(=O)N2CC12 (centres undefined) from this test.
Ans. inactive

Qu. I'd appreciate the recorded outcome for CC(C)C[C@H]1C(=O)N2CCC[C@H]2[C@]2(O)O[C@](NC(=O)[C@@H]3C[C@@H]4c5cccc6[nH]cc(c56)C[C@H]4N(C)C3)(C(C)C)C(=O)N12 from this test.
Ans. inactive

Qu. I'd appreciate the recorded outcome for COc1cc(C[C@H](C)N)c(OC)cc1C from this test.
Ans. inactive
